Attribution: patent US20240425523A1

Molecular target: EGFR-L858R/C797S (H1975-clone #8 cells) (Homo sapiens, UniProt P00533, C797S/L858R)
Construct: expressed in transfected cells; host or cells: H1975 (endogenous EGFR knocked out, clone #8)
Sequence (P00533 25-1210 C797S/L858R): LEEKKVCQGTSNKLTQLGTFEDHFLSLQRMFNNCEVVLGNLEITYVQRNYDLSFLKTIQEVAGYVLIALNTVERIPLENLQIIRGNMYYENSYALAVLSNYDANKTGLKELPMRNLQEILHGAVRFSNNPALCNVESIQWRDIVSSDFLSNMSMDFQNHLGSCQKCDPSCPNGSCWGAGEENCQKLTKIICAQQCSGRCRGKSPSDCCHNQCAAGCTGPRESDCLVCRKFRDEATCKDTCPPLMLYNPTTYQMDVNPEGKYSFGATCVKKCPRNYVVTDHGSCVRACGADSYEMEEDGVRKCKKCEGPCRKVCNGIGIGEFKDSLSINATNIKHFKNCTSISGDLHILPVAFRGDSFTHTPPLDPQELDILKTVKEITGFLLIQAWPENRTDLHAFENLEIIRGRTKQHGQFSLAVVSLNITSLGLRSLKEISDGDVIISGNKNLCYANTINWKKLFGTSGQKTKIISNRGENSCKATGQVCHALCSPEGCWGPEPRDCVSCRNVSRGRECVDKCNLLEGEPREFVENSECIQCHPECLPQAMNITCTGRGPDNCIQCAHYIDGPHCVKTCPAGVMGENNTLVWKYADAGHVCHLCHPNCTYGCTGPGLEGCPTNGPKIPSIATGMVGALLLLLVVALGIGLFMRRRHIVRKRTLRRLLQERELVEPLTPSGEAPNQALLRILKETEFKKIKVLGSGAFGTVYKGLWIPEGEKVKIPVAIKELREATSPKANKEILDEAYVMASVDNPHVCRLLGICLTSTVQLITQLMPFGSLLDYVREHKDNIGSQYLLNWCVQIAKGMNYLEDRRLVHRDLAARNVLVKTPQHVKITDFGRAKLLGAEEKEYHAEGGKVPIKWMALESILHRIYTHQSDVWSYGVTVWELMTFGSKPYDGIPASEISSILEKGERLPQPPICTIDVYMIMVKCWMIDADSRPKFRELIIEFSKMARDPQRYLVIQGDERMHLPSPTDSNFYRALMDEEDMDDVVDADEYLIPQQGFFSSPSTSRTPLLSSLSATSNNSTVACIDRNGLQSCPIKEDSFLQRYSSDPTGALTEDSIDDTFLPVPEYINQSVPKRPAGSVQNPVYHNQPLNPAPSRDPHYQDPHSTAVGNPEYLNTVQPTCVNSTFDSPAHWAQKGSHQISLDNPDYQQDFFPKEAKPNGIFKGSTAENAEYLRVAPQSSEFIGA
Assay: Cell degradation of EGFR, HTRF assay, H1975-clone#8 (L858R/C797S) cells
Type: cell-based
Settings: 16 h treatment, EGFR degradation
VALUE KIND: DC50 (nM)

>>> recorded_number("COC[C@H]1CN(c2ccc3c(c2)N2C[C@@H]4CC[C@H](COc5c(c(C)nn5C)-c5cc(cc(C)n5)C(=O)/N=C/2N3)C4)CCN1C1CCN(c2ccc(OC3CCC(=O)NC3=O)cc2C)CC1 (some centres unmarked)")
1.94
>>> recorded_number("Cc1cc2cc(n1)-c1cnn(C)c1OC[C@H]1CCC(C1)CN1/C(=N/C2=O)Nc2cc(F)c(N3CCN(C4CCN(c5cnc(C6CCC(=O)NC6=O)cc5C)CC4)CC3)cc21 (some centres unmarked)")
3.07
>>> recorded_number("Cc1cc2cc(n1)-c1c(C)nn(C)c1OC[C@H]1CCC(C1)CN1/C(=N/C2=O)Nc2ccc(N3CCN([C@@H]4CCN(c5cc(F)c(C6CCC(=O)NC6=O)nc5C)C[C@@H]4F)CC3)cc21 (some centres unmarked)")
0.8
>>> recorded_number("COC[C@@H]1CN(c2ccc3c(c2)N2CC4CC[C@H](COc5c(cnn5C)-c5cc(cc(C)n5)C(=O)/N=C/2N3)C4)CCN1C1CCN(c2ccc(C3CCC(=O)NC3=O)nc2C)CC1 (some centres unmarked)")
2.24
>>> recorded_number("Cc1cc2cc(n1)-c1cnn(C)c1OC[C@H]1CC[C@H](C1)CN1/C(=N/C2=O)Nc2ccc(N3CCN(C4CCN(c5cc(F)c(C6CCC(=O)NC6=O)nc5C)CC4)CC3)cc21 (some centres unmarked)")
1.2

---

Target: EGFR L858R (BaF3-L858R cells) (Homo sapiens, UniProt P00533, L858R)
Construct: host or cells: BaF3
Sequence (P00533 25-1210 L858R): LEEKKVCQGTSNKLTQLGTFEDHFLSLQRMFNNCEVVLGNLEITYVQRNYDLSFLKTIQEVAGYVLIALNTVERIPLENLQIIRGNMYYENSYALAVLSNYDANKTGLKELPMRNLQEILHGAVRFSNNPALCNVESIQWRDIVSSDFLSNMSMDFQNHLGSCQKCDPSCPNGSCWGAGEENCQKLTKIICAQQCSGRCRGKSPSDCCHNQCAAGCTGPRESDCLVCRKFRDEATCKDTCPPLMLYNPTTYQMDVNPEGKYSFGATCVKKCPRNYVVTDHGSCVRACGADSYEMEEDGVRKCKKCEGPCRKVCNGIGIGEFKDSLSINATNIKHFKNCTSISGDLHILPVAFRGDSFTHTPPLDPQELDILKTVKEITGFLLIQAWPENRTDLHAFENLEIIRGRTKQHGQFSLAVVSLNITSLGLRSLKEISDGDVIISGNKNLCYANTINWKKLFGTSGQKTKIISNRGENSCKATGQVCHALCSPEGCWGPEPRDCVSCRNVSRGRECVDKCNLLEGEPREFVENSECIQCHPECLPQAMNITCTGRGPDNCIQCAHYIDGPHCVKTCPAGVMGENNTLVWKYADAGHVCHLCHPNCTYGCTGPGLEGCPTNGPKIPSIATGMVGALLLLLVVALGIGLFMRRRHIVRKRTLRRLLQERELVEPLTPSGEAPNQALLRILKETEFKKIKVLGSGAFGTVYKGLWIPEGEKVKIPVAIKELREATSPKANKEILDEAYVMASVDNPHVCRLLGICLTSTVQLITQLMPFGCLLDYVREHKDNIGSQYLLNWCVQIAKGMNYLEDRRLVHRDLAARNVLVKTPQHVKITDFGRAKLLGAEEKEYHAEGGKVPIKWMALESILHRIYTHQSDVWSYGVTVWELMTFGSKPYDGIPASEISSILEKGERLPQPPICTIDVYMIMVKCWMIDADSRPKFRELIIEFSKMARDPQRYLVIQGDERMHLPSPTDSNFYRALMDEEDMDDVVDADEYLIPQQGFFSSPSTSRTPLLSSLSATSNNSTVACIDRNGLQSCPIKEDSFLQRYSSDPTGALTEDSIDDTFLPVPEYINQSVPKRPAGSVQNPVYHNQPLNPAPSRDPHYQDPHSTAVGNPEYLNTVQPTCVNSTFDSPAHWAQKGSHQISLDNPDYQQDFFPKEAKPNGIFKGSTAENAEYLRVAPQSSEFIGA
Experiment: Cell degradation of EGFR, HTRF assay, BaF3-L858R cells
Assay type: cell-based
Conditions: 16 h treatment, maximum percentage of degradation
Please use class 1 for Dmax under 90% and class 0 for everything else, ties included.

>>> qualitative_label("Cc1cc2cc(n1)-c1cnn(C)c1OC[C@H]1CC[C@H](C1)CN1/C(=N/C2=O)Nc2ccc(N3CCN(C4CCN(c5ccc(OC6CCC(=O)NC6=O)cc5)CC4)CC3)cc21 (stereo partly shown)")
"class 1"
>>> qualitative_label("CC[C@@H]1CN(c2ccc3c(c2)N2C[C@@H]4CC[C@H](COc5c(c(C)nn5C)-c5cc(cc(C)n5)C(=O)/N=C/2N3)C4)CCN1C1CCN(c2cc(F)c([C@H]3CCC(=O)NC3=O)c(F)c2)CC1")
"class 0"
>>> qualitative_label("COCC1(N2CCN(c3ccc4c(c3)N3CC5CC[C@H](COc6c(cnn6C)-c6cc(cc(C)n6)C(=O)/N=C/3N4)C5)CC2)CCN(c2ccc(C3CCC(=O)NC3=O)nc2C)CC1 (stereo partly shown)")
"class 1"
>>> qualitative_label("Cc1cc2cc(n1)-c1cnn(C)c1OC[C@H]1CCC(C1)CN1/C(=N/C2=O)Nc2ccc(N3CCN([C@H]4CCN(c5ccc(C6CCC(=O)NC6=O)nc5C)C[C@@H]4F)CC3)cc21 (stereo partly shown)")
"class 1"
>>> qualitative_label("Cc1cc2cc(n1)-c1cnn(C)c1OC[C@H]1CCC(C1)CN1/C(=N/C2=O)Nc2ccc(N3CCN(C4CCN(c5ccc(NC6CCC(=O)NC6=O)cc5Cl)CC4)CC3)cc21 (stereo partly shown)")
"class 1"
